Just for reference, ChEMBL document CHEMBL1166015 is where these values come from.

system: Mus musculus; test: Hypolipidemic activity in high cholesterol diet fed ICR mouse assessed as reduction of HDL cholesterol level at 100 mg/kg/day, po after 12 hrs of last cholesterol challenge relative to control; set-up: scale not given: the % may be the effect or the level left
Rule: Activity below -20% gives TRUE, anything at or above gives FALSE.

Please review the following examples before continuing.
CCCc1cc(OC)c(OCC(=O)O)cc1[N+](=O)[O-]; TRUE
CCCc1cc(OC)c(OCC(=O)OC)cc1N; TRUE
C=CCc1cc(OC)c(OC)cc1O; TRUE

In plain terms, does CCCc1cc(OC)c(OCC(=O)OC)cc1[N+](=O)[O-] come in under -20% for Activity?
FALSE

A record lists CCCc1cc(OC)c(OC)cc1O . Is its Activity below -20%?
TRUE

Does the reported Activity of the following compound sit strictly below -20%? CCCc1cc(OC)c(OCC(=O)OC)cc1O
FALSE

hey, is Activity for CCCc1ccc(OCC(=O)O)c(OC)c1 lower than -20% or not?
FALSE

* * *

system: Mus musculus; test: Hypolipidemic activity in high cholesterol diet fed ICR mouse assessed as reduction of triglyceride level at 50 mg/kg/day, po after 12 hrs of last cholesterol challenge relative to control; set-up: scale not given: the % may be the effect or the level left
Recorded Activity by entry
Write the number in % without appending the unit.

CCCc1cc(OC)c(OCC(=O)OC)cc1O; -68.42
CCCc1cc(OC)c(OC)cc1O; -62.42
CCCc1ccc(OCC(=O)O)c(OC)c1; -38.38
C=CCc1cc(OC)c(OC)cc1O; -37.78
CCCc1cc(OC)c(OCC(=O)O)cc1[N+](=O)[O-]; -49.21

CCCc1cc(OC)c(OCC(=O)OC)cc1[N+](=O)[O-] on Mus musculus gives Activity = -41.98

Item CCCc1cc(OC)c(OCC(=O)OC)cc1N was tested on Mus musculus; the reported Activity is -12.22

* * *

Reported Activity values are given for each entry in this list.
system: Mus musculus; assay: Hypolipidemic activity in ICR mouse assessed as decrease in Tyloxapol-induced LDL-cholesterol level at 100 mg/kg, ip administered 1 hr before Tyloxapol challenge and 22, 48 hrs after Tyloxapol challenge measured after 22 hrs relative to control; type: functional; set-up: scale not given: the % may be the effect or the level left; conditions: route oral, in the assay text read “po administered” for “ip administered”
API: value field is a number in %; no unit string.

Solved entries:
CCCc1cc(OC)c(OCC(=O)OC)cc1[N+](=O)[O-]; -33.33
CCCc1cc(OC)c(OC)cc1O; -35.05
CCCc1cc(OC)c(OCC(=O)OC)cc1O; -23.15
CCCc1cc(OC)c(OCC(=O)OC)cc1N; -37.31
CCCc1ccc(OCC(=O)O)c(OC)c1; -39.12
C=CCc1cc(OC)c(OC)cc1O; -52.07

The reported Activity of the compound CCCc1cc(OC)c(OCC(=O)O)cc1[N+](=O)[O-] was -44.61

* * *

system: Mus musculus; assay: Hypolipidemic activity in ICR mouse assessed as decrease in Tyloxapol-induced triglyceride level at 100 mg/kg, ip administered 1 hr before Tyloxapol challenge and 22, 48 hrs after Tyloxapol challenge measured after 22 hrs relative to control; assay type: functional; parameters: scale not given: the % may be the effect or the level left; details: route intraperitoneal
Could you label it yes if measured Activity is -30% or higher, and no otherwise?

Example entries and their recorded answers appear below.
C=CCc1cc(OC)c(OC)cc1O; yes
CCCc1cc(OC)c(OCC(=O)OC)cc1[N+](=O)[O-]; yes
CCCc1cc(OC)c(OCC(=O)OC)cc1N; yes

Decide: Activity of CCCc1cc(OC)c(OCC(=O)O)cc1[N+](=O)[O-] >= -30%?
yes

Does the compound CCCc1cc(OC)c(OC)cc1O have recorded Activity that is -30% or more?
yes

Threshold query (Activity >= -30%) on CCCc1cc(OC)c(OCC(=O)OC)cc1O
no

* * *

Molecular target: 3-hydroxy-3-methylglutaryl-coenzyme A reductase (Schizosaccharomyces pombe 972h-, UniProt Q10283)
Sequence (Q10283 whole entry): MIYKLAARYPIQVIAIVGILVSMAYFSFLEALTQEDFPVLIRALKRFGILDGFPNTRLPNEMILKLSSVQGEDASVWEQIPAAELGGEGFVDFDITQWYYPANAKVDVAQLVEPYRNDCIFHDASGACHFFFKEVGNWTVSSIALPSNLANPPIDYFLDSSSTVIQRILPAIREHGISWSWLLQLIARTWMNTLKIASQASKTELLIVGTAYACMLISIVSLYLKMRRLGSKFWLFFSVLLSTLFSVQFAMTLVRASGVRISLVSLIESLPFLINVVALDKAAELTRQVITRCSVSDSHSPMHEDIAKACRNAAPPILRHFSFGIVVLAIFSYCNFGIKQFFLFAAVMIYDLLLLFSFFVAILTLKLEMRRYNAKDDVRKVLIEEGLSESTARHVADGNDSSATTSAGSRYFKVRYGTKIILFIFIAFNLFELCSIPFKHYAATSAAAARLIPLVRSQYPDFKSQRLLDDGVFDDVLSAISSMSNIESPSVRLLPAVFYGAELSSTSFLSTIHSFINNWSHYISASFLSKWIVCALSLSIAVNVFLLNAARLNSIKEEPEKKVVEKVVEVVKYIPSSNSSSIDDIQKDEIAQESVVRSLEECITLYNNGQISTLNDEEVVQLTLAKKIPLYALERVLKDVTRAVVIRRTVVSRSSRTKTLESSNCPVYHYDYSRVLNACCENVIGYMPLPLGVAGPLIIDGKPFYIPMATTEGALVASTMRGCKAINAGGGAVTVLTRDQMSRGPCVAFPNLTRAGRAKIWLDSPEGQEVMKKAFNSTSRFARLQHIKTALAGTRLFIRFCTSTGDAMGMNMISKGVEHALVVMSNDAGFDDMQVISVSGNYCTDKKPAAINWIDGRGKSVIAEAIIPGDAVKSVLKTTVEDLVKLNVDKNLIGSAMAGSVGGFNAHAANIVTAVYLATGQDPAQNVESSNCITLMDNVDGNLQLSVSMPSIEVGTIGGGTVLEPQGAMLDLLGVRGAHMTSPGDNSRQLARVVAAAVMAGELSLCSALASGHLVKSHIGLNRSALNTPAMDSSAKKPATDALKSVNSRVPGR
Experiment: Inhibition of Schizosaccharomyces pombe HMG-CoA reductase by spectrophotometry
Conditions: read-out: IC50
reportedProperty: IC50 (µM)
Please reply with the bare figure in µM and do not write the unit itself.

CCC(C)(C)C(=O)O[C@H]1C[C@@H](C)C=C2C=C[C@H](C)[C@H](CC[C@@H]3C[C@@H](O)CC(=O)O3)[C@H]21 [SIMVASTATIN]; 95.2

// IC50 value for C=CCc1ccc(OCCNC(=O)c2cccc(Cl)c2)c(OC)c1 : 239

Reported IC50 ( CCCCc1cc(OC)c(OC)cc1OC ) = 219

The molecule CCC(O)c1cc(OC)c(OC)cc1N (centres undefined) showed IC50 equal to 153

For record CCCc1cc(OC)c(OCC(=O)OC)cc1N the listed IC50 is 92.9

* * *

target: 3-hydroxy-3-methylglutaryl-coenzyme A reductase (Schizosaccharomyces pombe 972h-); test: Inhibition of Schizosaccharomyces pombe HMG-CoA reductase by spectrophotometry; conditions: read-out: IC50
reportedProperty: pIC50
The value called pIC50 is obtained by taking minus log10 of the concentration in mol/L.

CCCc1cc(OC)c(OCC(=O)OC)cc1O; 4.18
CCCc1cc(OC)c(OCC(=O)O)cc1[N+](=O)[O-]; 3.87
C/C=C/c1cc(OC)c(OC)cc1N; 3.78

Form field pIC50, entry C/C=C/c1cc(OC)c(OC)cc1OC [TRANS-ASARONE] : 2.60

Reported pIC50 of CCOC(=O)COc1cccc(CC)c1 : 2.79

Value of measured pIC50 for the entry CCOC(=O)COc1cccc(C)c1 : 3.74

For this compound ( C=CCc1ccc(OCC(=O)O)c(OC)c1 ), measured pIC50 is 4.13

* * *

# IC50 listing for each entry below
Target: 3-hydroxy-3-methylglutaryl-coenzyme A reductase (Schizosaccharomyces pombe 972h-, UniProt Q10283)
Sequence (Q10283 whole entry): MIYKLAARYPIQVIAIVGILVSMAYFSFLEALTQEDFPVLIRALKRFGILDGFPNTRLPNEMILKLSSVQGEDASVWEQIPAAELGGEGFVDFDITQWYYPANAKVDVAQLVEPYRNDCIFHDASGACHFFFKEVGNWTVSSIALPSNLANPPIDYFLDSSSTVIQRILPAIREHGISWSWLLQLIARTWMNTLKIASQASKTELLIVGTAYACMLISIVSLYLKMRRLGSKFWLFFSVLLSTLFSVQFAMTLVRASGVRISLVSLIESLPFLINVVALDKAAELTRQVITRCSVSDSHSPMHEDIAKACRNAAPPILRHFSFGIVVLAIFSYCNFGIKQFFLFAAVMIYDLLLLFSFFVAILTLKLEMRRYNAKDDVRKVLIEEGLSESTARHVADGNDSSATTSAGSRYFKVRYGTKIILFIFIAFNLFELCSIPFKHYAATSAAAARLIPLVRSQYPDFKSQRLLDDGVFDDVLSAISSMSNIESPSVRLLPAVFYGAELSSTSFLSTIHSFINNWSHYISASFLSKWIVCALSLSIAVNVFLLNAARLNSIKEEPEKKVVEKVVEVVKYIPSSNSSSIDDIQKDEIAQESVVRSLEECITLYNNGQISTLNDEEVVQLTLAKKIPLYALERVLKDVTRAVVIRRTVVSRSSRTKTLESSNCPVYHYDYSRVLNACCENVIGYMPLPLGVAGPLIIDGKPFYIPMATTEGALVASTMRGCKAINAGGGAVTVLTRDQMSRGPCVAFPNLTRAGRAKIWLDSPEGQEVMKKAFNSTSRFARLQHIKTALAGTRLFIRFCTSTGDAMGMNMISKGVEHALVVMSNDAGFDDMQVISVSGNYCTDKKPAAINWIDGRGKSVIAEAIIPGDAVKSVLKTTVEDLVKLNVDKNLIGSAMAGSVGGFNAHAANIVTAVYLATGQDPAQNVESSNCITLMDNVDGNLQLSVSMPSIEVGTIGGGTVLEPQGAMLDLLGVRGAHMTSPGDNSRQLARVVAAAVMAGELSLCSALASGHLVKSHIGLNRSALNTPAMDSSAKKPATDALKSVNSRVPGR
Assay: Inhibition of Schizosaccharomyces pombe HMG-CoA reductase by spectrophotometry
Details: read-out: IC50
Supply the numeric figure in µM, leaving out any unit text.

Consider the following illustrative entries.
C/C=C/c1cc(OC)c(OC)cc1Cl; 71.4
CCc1ccc(OCC(=O)OC)cc1; 1320
CCc1ccccc1OCC(=O)OC; 506

Lab note: measured IC50 of CCc1ccc(OCC(=O)OC)c([N+](=O)[O-])c1 was 197
